Below is a list of entries, each paired with its recorded IC50 value.
# system: SLC39A8 (hZIP8) (Homo sapiens, UniProt Q9C0K1)
# Construct: DsRED
# Sequence (Q9C0K1 23-460): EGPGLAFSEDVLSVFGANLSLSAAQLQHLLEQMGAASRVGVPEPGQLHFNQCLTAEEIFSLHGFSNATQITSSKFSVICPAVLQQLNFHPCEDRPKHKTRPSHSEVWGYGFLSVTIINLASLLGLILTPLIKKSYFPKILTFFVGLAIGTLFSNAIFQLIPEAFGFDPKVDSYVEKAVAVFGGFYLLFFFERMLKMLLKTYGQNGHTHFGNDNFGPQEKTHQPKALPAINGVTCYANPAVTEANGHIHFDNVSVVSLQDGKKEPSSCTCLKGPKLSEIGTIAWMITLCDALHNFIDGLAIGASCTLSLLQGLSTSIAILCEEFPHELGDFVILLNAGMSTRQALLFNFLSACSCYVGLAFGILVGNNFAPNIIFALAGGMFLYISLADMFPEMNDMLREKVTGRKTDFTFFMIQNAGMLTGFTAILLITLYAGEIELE
# testName: 55Fe2+ uptake by HEK293T cells transiently transfected with hZIP8
# statedConditions: HEK293T transiently transfected with hZIP8, 55Fe2+ 1 μM, pH 7.4
measurementLabel: IC50

>>> endpointresult("Cc1cc(=O)[nH]c(-n2nc3c(c2C)CCCC3)n1")
"~1.1 µM"
>>> endpointresult("c1ccc(-c2ccccn2)nc1")
"~6.5 µM"

---

# system: hDMT1 (SLC11A2) (Homo sapiens)
# Construct: DsRED
# Sequence (P49281 whole entry): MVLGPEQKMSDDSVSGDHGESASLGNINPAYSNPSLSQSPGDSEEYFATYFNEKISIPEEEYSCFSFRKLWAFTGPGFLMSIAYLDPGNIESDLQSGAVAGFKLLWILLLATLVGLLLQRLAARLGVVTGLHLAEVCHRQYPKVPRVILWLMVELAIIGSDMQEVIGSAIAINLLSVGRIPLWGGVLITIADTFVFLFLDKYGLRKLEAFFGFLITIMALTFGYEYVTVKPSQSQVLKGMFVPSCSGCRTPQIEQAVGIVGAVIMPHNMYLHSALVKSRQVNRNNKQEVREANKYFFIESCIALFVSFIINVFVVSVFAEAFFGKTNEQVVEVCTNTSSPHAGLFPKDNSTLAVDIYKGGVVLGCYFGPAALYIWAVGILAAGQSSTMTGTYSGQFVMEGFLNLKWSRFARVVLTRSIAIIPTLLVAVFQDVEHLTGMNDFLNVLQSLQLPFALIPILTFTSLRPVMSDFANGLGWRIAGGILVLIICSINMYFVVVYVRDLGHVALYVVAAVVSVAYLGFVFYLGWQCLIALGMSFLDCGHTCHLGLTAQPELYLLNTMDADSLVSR
# testName: radioactive iron uptake assay in HEK293 cells stably overexpressing hDMT1
# statedConditions: radioactive iron 1 μM, 15 min incubation, extracellular pH 5.5, HEK293 stably overexpressing hDMT1
measurementLabel: log10 IC50 (log10 of the value in µM)

>>> endpointresult("N=C(N)SCc1cccc2c1oc1c(CSC(=N)N)cccc12 [Compound 1, reference compound]")
0.25
>>> endpointresult("CCc1cc(CC)n(-c2nc(C)cc(=O)[nH]2)n1")
0.58
>>> endpointresult("CCc1c(C)nn(-c2nc(C)cc(=O)[nH]2)c1C")
0.62
>>> endpointresult("Cc1cc(=O)[nH]c(-n2nc3c4c2CCCC4CCC3)n1 (stereo not drawn)")
-0.03
>>> endpointresult("Cc1cc(=O)[nH]c(-n2nc3c(c2C)CCCC3)n1")
0.04
>>> endpointresult("Cc1cc(C)n(-c2nc(C)c(C)c(O)n2)n1")
1.10
>>> endpointresult("Cc1cc(O)nc(-n2nc(C)cc2C)n1")
1.12
>>> endpointresult("Cc1cc(=O)[nH]c(-n2nc(C)c(C)c2C)n1")
1.00
>>> endpointresult("CCc1c2c(nn1-c1nc(C)cc(=O)[nH]1)CCCC2")
0.35
